- assay-system: T1, recombinant, soluble human ASGR-1 (human, UniProt P07306 62-291)
- T1 construct: biotinylated in the binning assay; also called soluble huASGR-1; Soluble ASGR-1 (Amgen)
- T1 sequence: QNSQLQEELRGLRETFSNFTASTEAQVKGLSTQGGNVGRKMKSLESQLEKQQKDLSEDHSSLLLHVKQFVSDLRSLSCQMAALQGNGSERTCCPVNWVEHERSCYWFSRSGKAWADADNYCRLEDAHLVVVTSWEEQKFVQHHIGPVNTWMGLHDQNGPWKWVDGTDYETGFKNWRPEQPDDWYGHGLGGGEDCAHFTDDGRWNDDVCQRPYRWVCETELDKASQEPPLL
- protocol: Octet BLI dissociation, pH 5.6 minus calcium
property-name: % Change Compared to pH 7.4 + Calcium (%)
Numbers only here, please. The scale is %.

# count of solved cases: 2
193E7 (antibody, V domains shown, hybridoma mAb) VH: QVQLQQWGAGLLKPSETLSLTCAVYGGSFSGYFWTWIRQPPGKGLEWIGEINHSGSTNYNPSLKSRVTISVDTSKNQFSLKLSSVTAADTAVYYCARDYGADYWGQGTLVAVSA VL: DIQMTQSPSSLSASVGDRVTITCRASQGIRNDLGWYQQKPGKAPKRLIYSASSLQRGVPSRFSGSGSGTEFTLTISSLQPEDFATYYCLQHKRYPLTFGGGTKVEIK    -4
227F2 (antibody, V domains shown, hybridoma mAb) VH: QVHLVQSGAEVKKPGASVKVSCKASGYTFTGYYIHWVRQAPGQGLEWMGWINPYSGDTKYAQKFQGRVTMTRDTSISTAYMELSRLRFDDTAVFYCARDWGGYSSYYYGMDVWGQGTTVTVSS VL: DIVMTQTPLSLSVTPGQPASISCKSSQSLLHSDGKTFLYWYLQKPGQPPQLLIYEISNRFSGVPDRFSGSGSGTDFTLKISRVEAEDVGIYYCMQSTQLPRTFGQGTKVEIK    100

IN: Returns the measured % Change Compared to pH 7.4 + Calcium for the input binder. Input: 149D11 (antibody, V domains shown, hybridoma mAb) VH: EVQLLESGGGLVQPGGSLRLSCAASGFTFSSYAMSWVRQAPGKGLEWVSAISGRGGNTFYADSVKGRFTISRDNSKNTLYRQMNSLRAEDTAVYYCAKKDYDYVWGSPYFDYWGQGTLVTVSS VL: DIQMTQSPASVSASVGDRVTITCRASQNISNWLTWYQQKPGKAPKLLIYAASSLQSGVPSRFSGSGSGTDFTLSISSLQPEDFATYYCQQTDSFPFTFGPGTKVDVK
OUT: 11
